Hello, the source for this data is patent US20160362460A1, in case you need it.

- targetEntity: T1, Human CTLA-4-Fc (Chimerigen, CHI-HF-210A4-M001) (human, UniProt P16410 37-162)
- T1 construct: Bought protein; also called hCTLA-4; not shown: Fc part of the bought fusion
- T1 sequence (P16410 37-162 limits assumed, change not shown): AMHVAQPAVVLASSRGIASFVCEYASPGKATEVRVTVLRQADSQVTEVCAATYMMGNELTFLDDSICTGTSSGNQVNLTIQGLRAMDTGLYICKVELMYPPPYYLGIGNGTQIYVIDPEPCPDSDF
- measurementProtocol: SPR (Biacore T200), human CTLA-4-Fc captured by anti-human IgG-Fc, mutein as analyte, 1:1 fit
kon listing for selected binders.
Value expressed in M⁻¹ s⁻¹; do not type the unit.

Example entries and their recorded answers appear below.
binder	resultUnits	kon
lipocalin mutein SEQ ID NO: 62 (designed binder) QDSTSDLIPAPPLSKVPLQQNFQDNQFQGKWYVVGLAGNRILRDDQHPMPMYATIYELKGDKSYNVTSVISSHKKCLYPIATFVPGSQPGEFTLGNIKSYGDKWSYLVRVVSTDYNQYAVVFFKHADSNYESFSITIYGRTKELASELKENFIRFSKSLGLPENHIVFPVPIDQCIDG	M⁻¹ s⁻¹	750000
lipocalin mutein SEQ ID NO: 94 (designed binder) QDSTSDLIPAPPLSKVPLQQNFQDNQFQGKWYVVGLAGNRILRQDQHPMPMYATIYELKEDKSYQVTSVISSHKKCLYPIATFVPGSQPGEFTLGNIKSYGDKVSYLVRVVSTNYNQHAMVFFKYADRNFESFSITLYGRTKELTSELKENFIRFSKSLGLPENHIVFPVPIDQCIDG	M⁻¹ s⁻¹	340000

Could you now consider this next binder?
input: // kon lookup, key: CTLA-4 specific lipocalin mutein (SEQ ID NO: 4) (designed binder, hNGAL (lipocalin 2) mutein) QDSTSDLIPAPPLSKVPLQQNFQDNQFHGKWYVVGLAGNRILRDDQHPMPMYATIYELKGDKSYNVTSVISSHKKCLYPIATFVPGSQPGEFTLGNIKSYGDKWSYLVRVVSTDYNQYAVVFFKHADSNYESFSITIYGRTKELASELKENFIRFSKSLGLPENHIVFPVPIDQCIDG
output: 640000
